TEST SYSTEM: human glucagon receptor (human) (UniProt P47871)
Sequence (P47871 26-477): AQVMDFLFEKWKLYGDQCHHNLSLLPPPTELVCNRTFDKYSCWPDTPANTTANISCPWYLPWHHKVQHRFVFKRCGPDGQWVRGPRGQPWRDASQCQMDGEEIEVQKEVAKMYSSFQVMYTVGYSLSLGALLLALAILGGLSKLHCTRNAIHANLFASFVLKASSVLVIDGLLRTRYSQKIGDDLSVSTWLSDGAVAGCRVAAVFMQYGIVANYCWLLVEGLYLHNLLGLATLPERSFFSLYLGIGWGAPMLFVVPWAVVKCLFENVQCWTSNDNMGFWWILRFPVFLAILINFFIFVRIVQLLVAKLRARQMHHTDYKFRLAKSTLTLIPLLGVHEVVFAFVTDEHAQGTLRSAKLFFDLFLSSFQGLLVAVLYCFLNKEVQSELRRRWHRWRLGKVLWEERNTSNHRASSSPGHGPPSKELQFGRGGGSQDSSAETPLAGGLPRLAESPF
ASSAY METHOD TEXT: cell-based or functional assay
Here the recorded cAMP Rel EC50 (in the presence of 1% HSA) is given for each entry.
QUANTITY KIND: cAMP Rel EC50 (in the presence of 1% HSA) (nM)

[
  {
    "BINDER": "YXQGTFTSDXSKXLDKKAQXAFIEYLIAXGESSGAPPPSGS (non-natural residues; C18 diacid-γGlu-AEEA on Lys; C-terminal amide; synthetic construct; SITE 2: note = 2-Aminoisobutyric Acid; SITE 10: note = 3-(4-Pyridyl)-L-alanine; SITE 13: note = alpha-methyl-leucine; SITE 17: note = Lysine is chemically modified through conjugation of the epsilon-amino group of the Lysine side chain with (2-[2-(2-Amino-ethoxy)-ethoxy]-acetyl)) [Example 285]",
    "READOUT NUMBER": 409
  },
  {
    "BINDER": "YXQGTFTSDFSKXLDKKAQXAFIEYLLAGGPSSGEPPPGGS (synthetic construct; SITE 2: note = 2-Aminoisobutyric Acid; SITE 13: note = alpha-methyl-leucine; SITE 17: note = Lysine is chemically modified through conjugation of the epsilon-amino group of the Lysine side chain with (2-[2-(2-Amino-ethoxy)-ethoxy]-acetyl)-(gamma-Glu)-CO-(CH2) 18-CO2H; SITE 20: n) [Example 9]",
    "READOUT NUMBER": 1430
  },
  {
    "BINDER": "YXQGTXTSDXXIXLDXKAQXEFIEXLIEGGPPSGEPPPEGE (Aib, αMeF(2F), 4Pal, Orn, αMe residues, acylated Lys, amide; synthetic construct; SITE 2: note = 2-Aminoisobutyric Acid; SITE 6: note = alpha-methyl-2-fluoro-L-phenylalanine; SITE 10: note = 3-(4-Pyridyl)-L-alanine; SITE 11: note = alpha-methyl-L-serine; SITE 13: note = alpha-methyl-leucine; SITE 16: note = L-ornithine; SITE 17: note = Lysine is chemically mo) [Example 1191]",
    "READOUT NUMBER": 243
  },
  {
    "BINDER": "YXQGTFTSDFSKXLDKKAQXAFIEYLLAGGPSSGEPPPSEG (synthetic construct; SITE 2: note = 2-Aminoisobutyric Acid; SITE 13: note = alpha-methyl-leucine; SITE 17: note = Lysine is chemically modified through conjugation of the epsilon-amino group of the Lysine side chain with (2-[2-(2-Amino-ethoxy)-ethoxy]-acetyl)2-(gamma-Glu)-CO-(CH2 )16-CO2H; SITE 20:) [Example 25]",
    "READOUT NUMBER": 939
  },
  {
    "BINDER": "YXQGTFTSDXSKXLDKKAQXAFIEYLLAGGPSSGEPPPSGE (synthetic construct; SITE 2: note = 2-Aminoisobutyric Acid; SITE 10: note = 3-(4-Pyridyl)-L-alanine; SITE 13: note = alpha-methyl-leucine; SITE 17: note = Lysine is chemically modified through conjugation of the epsilon-amino group of the Lysine side chain with (2-[2-(2-Amino-ethoxy)-ethoxy]-acetyl)) [Example 28]",
    "READOUT NUMBER": 1550
  },
  {
    "BINDER": "YXQGTFTSDFSKXLDKKAQXAFIEYLLEGGPSSGEPPPTEG (synthetic construct; SITE 2: note = 2-Aminoisobutyric Acid; SITE 13: note = alpha-methyl-leucine; SITE 17: note = Lysine is chemically modified through conjugation of the epsilon-amino group of the Lysine side chain with (2-[2-(2-Amino-ethoxy)-ethoxy]-acetyl)-(gamma-Glu)-CO-(CH2) 18-CO2H; SITE 20: n) [Example 36]",
    "READOUT NUMBER": 1330
  },
  {
    "BINDER": "YXQGTFTSDFSKXLDKKAQXAFIEYLLEXGPSSGAPPPGGS (synthetic construct; SITE 2: note = 2-Aminoisobutyric Acid; SITE 13: note = alpha-methyl-leucine; SITE 17: note = Lysine is chemically modified through conjugation of the epsilon-amino group of the Lysine side chain with (2-[2-(2-Amino-ethoxy)-ethoxy]-acetyl)-(gamma-Glu)-CO-(CH2) 18-CO2H; SITE 20: n) [Example 43]",
    "READOUT NUMBER": 850
  },
  {
    "BINDER": "YXQGTXTSDXSIXLDXKAQXEFIEXLLEGGPSSGEPPPSGS (non-natural residues; lipidated Lys; C-terminal amide; synthetic construct; SITE 2: note = 2-Aminoisobutyric Acid; SITE 6: note = alpha-methyl-2-fluoro-L-phenylalanine; SITE 10: note = 3-(4-Pyridyl)-L-alanine; SITE 13: note = alpha-methyl-leucine; SITE 16: note = L-ornithine; SITE 17: note = Lysine is chemically modified through conjugation of the epsil) [Example 645]",
    "READOUT NUMBER": 398
  },
  {
    "BINDER": "YXQGTFTSDFSXXLDKKAQXAFIEYLLEAGPSSGAPPPSGH (C-terminal amide; lysine acylated with AEEA-γ-Glu-C18 diacid; synthetic construct; SITE 2: note = 2-Aminoisobutyric Acid; SITE 12: note = L-ornithine; SITE 13: note = alpha-methyl-leucine; SITE 17: note = Lysine is chemically modified through conjugation of the epsilon-amino group of the Lysine side chain with (2-[2-(2-Amino-ethoxy)-ethoxy]-acetyl)-(gamma-Glu)) [Example 259]",
    "READOUT NUMBER": 317
  },
  {
    "BINDER": "YXQGTXTSDXSIXLDXKAQXEFIEXLLEGGPSSGAPPPSGE (Non-natural residues; K acylated AEEA-γGlu-C18 diacid; C-terminal amide; synthetic construct; SITE 2: note = 2-Aminoisobutyric Acid; SITE 6: note = alpha-methyl-2-fluoro-L-phenylalanine; SITE 10: note = 3-(4-Pyridyl)-L-alanine; SITE 13: note = alpha-methyl-leucine; SITE 16: note = L-ornithine; SITE 17: note = Lysine is chemically modified through conjugation of the epsil) [Example 615]",
    "READOUT NUMBER": 697
  },
  {
    "BINDER": "YXQGTXTSDXSILLDKKAQXAFIEYLEEGGPSSGAPPPSGGGE (non-natural residues; lipidated Lys; C-terminal amide; synthetic construct; SITE 2: note = 2-Aminoisobutyric Acid; SITE 6: note = alpha-methyl-2-fluoro-L-phenylalanine; SITE 10: note = 3-(4-Pyridyl)-L-alanine; SITE 17: note = Lysine is chemically modified through conjugation of the epsilon-amino group of the Lysine side chain with (gamma-Glu)2-CO-(CH2)1) [Example 619]",
    "READOUT NUMBER": 819
  },
  {
    "BINDER": "YXQGTXTSDXXIXLDXKAQXEFIEXLIEGGPSSGEPPPSGSE (Aib, αMeF, 4Pal, αMeS, αMeL, Orn, Me4Pal, αMeY, acyl, amide; synthetic construct; SITE 2: note = 2-Aminoisobutyric Acid; SITE 6: note = alpha-methyl-L-phenylalanine; SITE 10: note = 3-(4-Pyridyl)-L-alanine; SITE 11: note = alpha-methyl-L-serine; SITE 13: note = alpha-methyl-leucine; SITE 16: note = L-ornithine; SITE 17: note = Lysine is chemically modified th) [Example 1167]",
    "READOUT NUMBER": 274
  }
]
